# Study target: purified human IL-1β pro enzyme (Homo sapiens, UniProt P29466)
# Construct: beginning with amino acid 120; Based upon a molecular weight analysis, the approximate C-terminus of mature IL-1β pro is about amino acid 297; endogenous in cells; host or cells: THP-1 cells (ATCC), stimulated, lysed, six-step chromatography
# Sequence (P29466 120-297): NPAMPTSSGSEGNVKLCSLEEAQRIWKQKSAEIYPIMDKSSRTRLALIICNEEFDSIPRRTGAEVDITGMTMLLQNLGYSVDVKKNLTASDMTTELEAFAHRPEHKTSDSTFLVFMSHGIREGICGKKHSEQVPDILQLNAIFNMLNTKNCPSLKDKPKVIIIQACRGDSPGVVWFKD
# Sequence (P29466 317-404): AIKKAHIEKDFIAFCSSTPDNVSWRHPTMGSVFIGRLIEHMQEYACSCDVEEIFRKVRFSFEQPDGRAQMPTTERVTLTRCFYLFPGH
# Protocol text: Cleavage of synthetic peptide substrates by purified human IL-1β pro enzyme (RP-HPLC)
# Assay type: biochemical
# Set-up: key: reactivity relative to peptide Ala112–Ser121 of precursor IL-1β
# Assay setup: Table 1; changes at cleavage site; 37° C., four hours; extent of peptide cleavage by RP-HPLC peak area at 280 nm
Non-standard residues stand in square brackets, D forms with d.
Quantity kind: Reactivity Relative To Peptide 1

>  <Substance>
Ala-Tyr-Val-His-Asp-Ala-Ala-Val-Arg-Ser (Seq. I.D. No. 20) (AYVHDAAVRS) [Peptide 8, substrate peptide, P2′ proline changed to alanine]

>  <Result operator>
=

>  <Reported measurement>
0.47

$$$$
>  <Substance>
Ala-Tyr-Val-His-Asp-Gly-Pro-Val-Arg-Ser (Seq. I.D. No. 17) (AYVHDGPVRS) [Peptide 5, substrate peptide, P1′ alanine replaced with glycine]

>  <Result operator>
=

>  <Reported measurement>
3.40

$$$$
>  <Substance>
Ala-Tyr-Val-Phe-Asp-Ala-Pro-Val-Arg-Ser (Seq. I.D. No. 19) (AYVFDAPVRS) [Peptide 7]

>  <Result operator>
=

>  <Reported measurement>
0.50

$$$$
>  <Substance>
Ala-Tyr-Val-His-(D-Asp)-Ala-Pro-Val-Arg-Ser (Seq. I.D. No. 16) (Ac-AYVH[dD]APVRS-NH2) [Peptide 4, substrate peptide, Asp changed to D-aspartate]

>  <Result operator>
<

>  <Reported measurement>
0.01

$$$$
>  <Substance>
Ala-Tyr-Val-His-Asn-Ala-Pro-Val-Arg-Ser (Seq. I.D. No. 14) (AYVHNAPVRS) [Peptide 2, substrate peptide, Asp changed to asparagine]

>  <Result operator>
<

>  <Reported measurement>
0.01

$$$$
>  <Substance>
Ala-Tyr-Val-His-Asp-Val-Pro-Val-Arg-Ser (Seq. I.D. No. 18) (AYVHDVPVRS) [Peptide 6, substrate peptide, P1′ alanine changed to valine]

>  <Result operator>
<

>  <Reported measurement>
0.05

$$$$
>  <Substance>
Ala-Tyr-Val-His-Glu-Ala-Pro-Val-Arg-Ser (Seq. I.D. No. 15) (AYVHEAPVRS) [Peptide 3, substrate peptide, Asp changed to glutamic acid]

>  <Result operator>
<

>  <Reported measurement>
0.05

$$$$
